System: NCI/ADR-RES ovarian
Experiment: NCI-60 one-dose screen, 48 h (100 = growth as untreated, 0 = no growth, -100 = all killed)
Settings: 10 µM unless noted
Compounds without any hit were thinned out: in the full panel of roughly 83,000, 20% have a hit.
Catalogue of growth readings, one per entry.
quantityKind: growth (%)

1. COc1ccc(C(=O)/C=C/c2c(Cl)c3c(c(OC)c2Cl)OCC(=O)N3)cc1 ... 19.4
2. CCN(CC)Cc1cc(Nc2c3ccccc3nc3cc(Cl)ccc23)ccc1O ... -38.5
3. COc1cc2cc(COc3nccc(-c4ccc(Cl)cc4)n3)c(=O)[nH]c2cc1OC ... 84.2
4. O=C(CN1CCN(c2cc3c(cc2F)c(=O)c(C(=O)N/N=C/c2ccccc2)cn3C2CC2)CC1)N/N=C\c1ccccc1 ... 77.1
5. O=C1c2cc3c(cc2-c2c1c1cc(F)c(F)cc1c(=O)n2C[C@H](O)CO)OCO3 ... -17
6. Clc1cccc(Nc2nc(Nc3cnc4ccccc4c3)c3[nH]cnc3n2)c1 ... 87.2
7. COc1cc(/C=N/N(C)C)ccc1O ... 107
8. CC(=O)OCC(=O)C1CCC=CC1OC(C)=O (stereo unspecified) ... 100
9. CCc1ccccc1NC(=O)c1sc2nc3c(cc2c1N)C(=O)CCC3 ... 5.24
10. CSc1nc2sc3c(c2c(=O)n1-c1ccc(C(C)C)cc1)CCC(=O)C3 ... -11.1
11. O=C1C=CC(=O)c2c1nc1n2CCCC1 ... 89.6

* * *

Test system: MALME-3M melanoma
Test: NCI-60 one-dose screen, 48 h
Conditions: 10 µM unless noted
Compounds without any hit were thinned out: in the full panel of roughly 83,000, 20% have a hit. Calls of active or inactive are those of the source. How the source made its calls: active means growth percent below 10; inactive means the rest.
Labels: 1 (yes) = active, 0 (no) = inactive

1. CS(=O)(CCCCN=C=S)=NC(=O)c1c(F)c(F)c(F)c(F)c1F (stereo unspecified) ... 0 (no)
2. NC(N)=Nc1ccc(S(=O)(=O)O)cc1 ... 0 (no)
3. Nc1cccc(NC(=O)C(=O)Nc2cccc(N)c2)c1 ... 0 (no)
4. CC[C@H](Nc1cc(C)nc(N)n1)c1nc2cccc(NCc3ccc(C(=O)NO)cc3)c2c(=O)n1-c1ccccc1 ... 0 (no)
5. Nc1c(C(=O)Nc2cccc3c2OCCO3)sc2nc3c(cc12)CN(Cc1ccccc1)CC3 ... 0 (no)
6. COc1ccc(C/C(C)=C(\c2ccc(OCCN3CCCCCC3)cc2)c2ccc(OC(=O)C3CCCCC3)cc2)cc1 ... 0 (no)
7. COC(=O)[C@H](C(C)C)n1c(=O)c2cc(OC)c(OC)cc2c2cnc3[nH]ccc3c21 ... 0 (no)
8. COc1cc(NCCCCCN=C(N)NC(N)=NC(C)C)c2ncccc2c1 ... 1 (yes)
9. CCN(CC)C12CCCCC1(C)C(C#N)(C#N)C(C#N)=C(N)O2 (stereo unspecified) ... 0 (no)
10. Cn1c(=O)c2c(ncn2CC[N+](C)(C)C)n(C)c1=O ... 0 (no)
11. CC#CC#Cc1cccc(=O)o1 ... 0 (no)

* * *

Test system: SF-295 CNS
Experiment: NCI-60 one-dose screen, 48 h (100 = growth as untreated, 0 = no growth, -100 = all killed)
Conditions: 10 µM unless noted
Compounds without any hit were thinned out: in the full panel of roughly 83,000, 20% have a hit.
Response key: MET means growth >= 50%; NOT MET means growth < 50%.

1. Cc1ccc(Nc2nc(N)nc(Nc3ccc4ccccc4c3)n2)cc1 ... MET
2. CCN(C(=O)CN1CCN(c2cc3c(cc2F)c(=O)c(C(=O)O)cn3CC)CC1)c1nc(-c2ccccc2)cs1 ... NOT MET
3. COc1ccc2nc(NC(=O)c3cccnc3Nc3cc(OC)c(OC)c(OC)c3)sc2c1 ... MET
4. COc1ccc(S(=O)(=O)NCCNc2nccc(-c3c(-c4cccc(N)c4)nc4sccn34)n2)cc1 ... MET
5. N#Cc1c(N)nc(N)nc1Nc1ccc(Br)cc1 ... MET

* * *

System: NCI-H226 lung
Experiment: NCI-60 one-dose screen, 48 h
Details: 10 µM unless noted
The panel holds about 83,000 compounds, 20% with a hit somewhere; the sample as a whole holds those more often. Activity calls are given as the source filed them. The calls were made as follows: active = growth percent below 10; inactive = the rest.
Possible outcomes: 1 = active, 0 = inactive

1) O=S(=O)(NCCCNc1cc(-c2cn(-c3ccccc3)nc2-c2cccc(O)c2)ccn1)c1ccccc1 ... 0
2) COc1ccc(C(=O)/C=C/c2c(Cl)c3c(c(OC)c2Cl)OCC(=O)N3)cc1 ... 0
3) Nc1c(C(=O)Nc2cccc3c2OCCO3)sc2nc3c(cc12)CN(Cc1ccccc1)CC3 ... 0
4) O=C1CC(c2nc3ccccc3s2)CN1C1CCCCC1 (stereo not given) ... 0
5) CCCCCC(=O)Oc1ccc(/C(=C(\C)c2ccccc2)c2ccc(OCCN(CC)CC)cc2)cc1 ... 0
6) Brc1cccc(-c2cc(-c3ccc4c(c3)OCCO4)[nH]n2)c1 ... 0
7) CC(=O)Oc1ccc(Nc2c3ccccc3nc3ccccc23)cc1 ... 1
8) CN1CCN(Cc2ccc(NC(=O)c3cncc(C#Cc4cncc5nccnc45)c3)cc2C(F)(F)F)CC1 ... 1
9) O=c1c(/C=C/c2ccco2)nnc(SCCN2CCOCC2)n1/N=C/c1ccc([N+](=O)[O-])cc1 ... 0
10) C#Cc1nc(Nc2cc(C)[nH]n2)c2ccccc2n1 ... 1

* * *

Tested on: BT-549 breast
Assay: NCI-60 one-dose screen, 48 h (100 = growth as untreated, 0 = no growth, -100 = all killed)
Conditions: 10 µM unless noted
Compounds without any hit were thinned out: in the full panel of roughly 83,000, 20% have a hit.
Param threshold (80%) applies to growth; output TRUE when value >= threshold, FALSE when value < threshold.

1. COc1cnc2c(c1)C(=O)c1c-2n(CCCN2CCCC2)c(=O)c2cc([N+](=O)[O-])ccc12 ... FALSE
2. COc1cccc(/C=C\C(=O)c2ccccc2)c1 ... TRUE
3. COc1cc(C(=O)/C=C/c2c(C)n([O-])c3ccc(C)cc3[n+]2=O)cc(OC)c1OC ... FALSE
4. COc1cc(/C=N/N(C)C)ccc1O ... TRUE
5. C(=N\Nc1ccccn1)/c1ccccn1 ... FALSE

* * *

Tested on: NCI-H522 lung
Assay: NCI-60 one-dose screen, 48 h
Details: 10 µM unless noted
Description: Growth inhibition of the NCI-H522 human Non-Small Cell Lung tumor cell line is measured as a screen for anti-cancer activity. Cells are grown in 96 well plates and exposed to the test compound for 48 hours. Compounds are tested at a single concentration, which is 10^-5 M for most compounds. The reported endpoint is percent growth (GI% or GIPRCNT), where numbers from 0 - 100% represent growth inhibition, and numbers from -100% - 0 represent cell death. […]
About 83,000 compounds went through this panel and 20% of them were active in at least one assay; those are over-represented in the sample as a whole. Active and inactive are the calls of the source. The calls were made as follows: active = growth percent below 10; inactive = the rest.
Classes used: Yes = active, No = inactive

1. O=C(Cc1ccccc1)c1ccc(Cl)cc1 ... No
2. Cc1cc(=O)oc2cc(Oc3nc(-c4ccc(Cl)cc4)cn4c(-c5ccc(Cl)cc5)cnc34)ccc12 ... No
3. COc1ccc(-c2cn3c(-c4ccc(OC)cc4)cnc3c(Oc3ccc4c(C)cc(=O)oc4c3)n2)cc1 ... No
4. CCCCCCCCCCCCNC(=O)[C@H]1CSC(c2ccc(OC)c(F)c2)N1 (stereo not given in full) ... Yes
5. COc1nc2c(cc1S(=O)(=O)c1ccccc1)CCc1c-2cnn1-c1ccc(Cl)cc1 ... No
6. COc1ccc(Cl)cc1Nc1nc(C(F)(F)F)ccc1C(=O)N/N=C/c1cccnc1 ... No
7. Cn1c(=O)c2c(ncn2CC[N+](C)(C)C)n(C)c1=O ... No
8. Nc1c(C(=O)Nc2cccc3c2OCCO3)sc2nc3c(cc12)C(=O)CCC3 ... Yes
9. CC1=C(NCCN2CCCC2)C(=O)c2c(OCc3ccc(F)c(Cl)c3)cccc2C1=O ... No
10. c1ccc2c(Nc3cccc4ccccc34)cccc2c1 ... No

* * *

Measured growth, listed per entry for reference.
Tested on: NCI-H522 lung
Assay: NCI-60 one-dose screen, 48 h (100 = growth as untreated, 0 = no growth, -100 = all killed)
Details: 10 µM unless noted
The panel holds about 83,000 compounds, 20% with a hit somewhere; the sample as a whole holds those more often. Active and inactive are the calls of the source. Rule for the calls: active = growth percent below 10; inactive = the rest.
quantityKind: growth

1. CCOC(=O)C(C#N)C1CCCCC1 (stereo unspecified) ... 96.9% (inactive)
2. COc1ccccc1/C=C(/C(=O)c1ccccc1)c1ccccc1 ... 106% (inactive)
3. CCCCCCCCOC(=O)CC[C@@H](C)[C@H]1CC[C@H]2[C@@H]3[C@H](OC(=O)CCN)C[C@@H]4C[C@H](OC(=O)CCN)CC[C@]4(C)[C@H]3C[C@H](OC(=O)CCN)[C@]12C ... 10.8% (inactive)
4. C(=N\Nc1ccccn1)/c1ccccn1 ... -9.71% (active)
5. COc1ccc(C(=O)c2sc3nc(-c4ccccc4OC)ccc3c2N)cc1OC ... 50.3% (inactive)
6. CN1CCN(Cc2ccc(NC(=O)c3[nH]ncc3Nc3ncnc4c3CCC4)cc2)CC1 ... 13.7% (inactive)
7. Brc1cccc(-c2nc(-c3ccc4c(c3)OCCO4)co2)c1 ... 24.5% [25 µM] (inactive)
8. O=C(C[C@@H](C(=O)NCc1cccc(C(F)(F)F)c1)N1C(=O)[C@@H](N2C(=O)OC[C@@H]2c2ccccc2)[C@H]1/C=C/c1ccccc1)NC1CCN(Cc2ccccc2)CC1 ... 33.8% (inactive)
9. Cc1cc2cc3cc(C)c(N(C)C)cc3[n+](C)c2cc1N(C)C ... -5.03% (active)
10. CN(C)c1ccc(/C=C\C2=[N+](C)c3ccccc3C2(C)C)cc1 ... -23.7% (active)
11. CC1=NNC(=O)C1C (stereo unspecified) ... 85.9% (inactive)
12. Cc1ccc2c(c1)n([O-])c1cc(Cl)ccc1[n+]2=O ... 89.2% (inactive)
13. CCCCCCCCCCCCCC1=NCCN1CCO ... 89% (inactive)
14. CCOC(=O)c1nc(Nc2cc(C)[nH]n2)c2ccccc2n1 ... 92.2% (inactive)
15. CCCCCC(=O)N(CCCC)CCCC ... 97.6% (inactive)
16. c1c2c(cc3c1OCO3)Cc1cc3c(cc1Cc1cc4c(cc1C2)OCO4)OCO3 ... 94.2% (inactive)
17. O=C(O)c1cccnc1Br ... 84.8% (inactive)
18. Cc1ccc(NC(=O)c2sc3nc4c(cc3c2N)C(=O)CCC4)cc1C ... -9.22% (active)
19. O=[N+]([O-])c1cccc(-c2nc3sccn3c2-c2ccnc(NCCCNS(=O)(=O)c3ccc(F)cc3)n2)c1 ... 0.116% (active)
20. NCCN1CCN(c2nccc(-c3ccc4ccccc4c3)n2)CC1 ... 81.3% (inactive)
21. Cc1cc(-c2nc3ccccc3s2)ccc1NC(=O)COc1ccc(Cl)cc1 ... 87.8% (inactive)
22. Nc1ccc(Nc2nccc(-c3ccc4ccccc4c3)n2)cc1 ... 27.6% (inactive)
23. COc1cccc(-c2nc3sccn3c2-c2ccnc(NCCCNS(=O)(=O)c3ccccc3)c2)c1 ... 27.9% (inactive)
24. COc1cc(OC)c(/C=C/C(=O)c2c(OC)cc(OC)cc2OC)c(OC)c1 ... 2.82% (active)
25. Nc1cc(O)cc2cccnc12 ... 50.6% (inactive)
26. Nc1nc(SCc2ccccc2)c2ncn(C3CCCC3)c2n1 ... 76.8% (inactive)
27. COc1cc(OC)c(/C=C/S(=O)(=O)Cc2cnc(OC)c(N)c2)c(OC)c1 ... -2.15% (active)
28. COC(=O)C12C3C(=O)N(c4ccc(OC)cc4)C(=O)C3C(c3cn(-c4ccccc4)nc3C)N1[C@H](c1cn(-c3ccccc3)nc1C)[C@@H]1C(=O)N(c3ccc(OC)cc3)C(=O)[C@@H]12 (stereo partly specified) ... 91.2% (inactive)
29. Cn1cc(-c2nc(-c3c[nH]c4ccccc34)cs2)c2cccnc21 ... -3.47% (active)
30. COc1ncc(-c2ccc3ncnc(Nc4cccc(Cl)c4)c3c2)cc1NS(C)(=O)=O ... 33.3% (inactive)
31. O=C(O)c1c([N+](=O)[O-])cnc2ccccc12 ... 100% (inactive)
32. CCN(CC)c1ccc(CNc2cc(C)nc3ccc(OC)cc23)cc1 ... 24.6% (inactive)
33. c1ccc(CSc2ncnc3nc[nH]c23)nc1 ... 82.7% (inactive)
34. C#Cc1nc2ccccc2c(=O)[nH]1 ... -71.9% (active)
35. CCOC(=O)N1CCN(c2nc(Nc3cc(C)[nH]n3)c3ccccc3n2)CC1 ... 10.4% (inactive)
36. C=C1CC[C@@H]2[C@](C)(COC(C)=O)[C@H](OC(C)=O)CC[C@@]2(C)[C@@H]1CC(Nc1ccc(S(=O)(=O)Nc2nc(C)cc(C)n2)cc1)C1=CCOC1=O (stereo partly specified) ... 22% (inactive)
37. CSc1[nH]c2ncnc(N)c2c1C#N ... 82.6% (inactive)
38. CCCN(CCC)CN(CCC)CCC ... 101% (inactive)
39. CCCCCN(CCCCC)CCC[C@@H](C)[C@H]1CC[C@H]2[C@@H]3[C@H](OCCCN)C[C@@H]4C[C@H](OCCCN)CC[C@]4(C)[C@H]3C[C@H](OCCCN)[C@]12C ... 28.8% (inactive)
40. CC(=O)Oc1ccc(Nc2c3ccccc3nc3ccccc23)cc1 ... -69.7% (active)
41. CCCCCCCCCCCCCCCCNCCC[C@@H](C)[C@H]1CC[C@H]2[C@@H]3[C@H](OCCCN)C[C@@H]4C[C@H](OCCCN)CC[C@]4(C)[C@H]3C[C@H](OCCCN)[C@]12C ... -43.6% (active)
